Could you please report measured Kd for the items listed next?
TARGET OR SYSTEM: human CA-IX (Homo sapiens, UniProt Q16790)
Construct: purchased Acro CA9-H82E3
TEST DESCRIPTION: Surface Plasmon Resonance (SPR) binding kinetics to recombinant human CA-IX (Biacore 8K, single-cycle kinetics, 1:1 binding model)
ASSAY CONDITIONS: read-out: CAIX KD; Chelated Metal: Lu-175; SPR, 25° C., pH 7.4

Qu. Reported Kd for `CC(CCC(=O)N[C@@H](CC(=O)N[C@@H](CC(=O)N1CCN(C(=O)OCCOCCNC(=O)CN2CCN(CC(=O)O)CCN(CC(=O)O)CCN(CC(=O)O)CC2)C[C@@H]1CCCCn1cc(CCCC(=O)Nc2nnc(S(N)(=O)=O)s2)nn1)C(=O)O)C(=O)O)(c1ccc(O)cc1)c1ccc(O)cc1.[Lu+3]` : what is it?
Ans. 2.5 to 10 nM

Qu. Moving on to `CC(C)(CCCC(=O)N1CCC(C(N)=O)(C(=O)NCC(=O)N2CCN(C(=O)CN3CCN(CC(=O)O)CCN(CC(=O)O)CCN(CC(=O)O)CC3)C[C@H]2C(=O)NCCn2cc(C34CC(C(=O)Nc5nnc(S(N)(=O)=O)s5)(C3)C4)nn2)CC1)c1ccc(O)cc1.[Lu+3]`
Ans. < 1 nM

Hello, the source for this data is patent US20260325685A1, in case you need it.
